# measured.target: P450 4A11 (Homo sapiens, UniProt Q02928)
# Sequence (Q02928 5-519): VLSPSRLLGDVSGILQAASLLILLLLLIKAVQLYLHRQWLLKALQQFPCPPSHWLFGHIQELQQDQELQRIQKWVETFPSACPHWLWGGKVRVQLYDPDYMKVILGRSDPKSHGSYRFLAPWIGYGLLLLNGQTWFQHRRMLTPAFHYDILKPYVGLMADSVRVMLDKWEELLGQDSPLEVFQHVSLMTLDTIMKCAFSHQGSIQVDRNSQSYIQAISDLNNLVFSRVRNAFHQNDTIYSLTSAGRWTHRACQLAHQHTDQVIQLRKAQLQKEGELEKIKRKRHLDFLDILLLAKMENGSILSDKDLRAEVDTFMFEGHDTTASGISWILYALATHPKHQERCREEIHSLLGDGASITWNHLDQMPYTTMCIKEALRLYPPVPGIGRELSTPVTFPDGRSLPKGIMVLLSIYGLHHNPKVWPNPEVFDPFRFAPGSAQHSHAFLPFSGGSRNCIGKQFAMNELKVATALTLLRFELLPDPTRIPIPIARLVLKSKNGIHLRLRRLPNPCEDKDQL
# assay.protocol: Equilibrium binding titrations of P450 4A11 with lipids (heme Soret spectral shift)
# condition.parameters: read-out: Kd for P450 4A11; P450 4A11 1 μM, 100 mM potassium phosphate pH 7.4
pKd: −log10 of the molar value.

# compound, pKd
data = [
    ("O=C(O)CCCCCCCCCCCCCCCO [16-OH Palmitate (C16), 16-hydroxypalmitate]", 6.57),
]

* * *

# measured.target: FABP1 (Homo sapiens)
# Construct: GST (N, cleaved yes); made in house; host or cells: Escherichia coli DH5α
# Sequence (P07148 with tags, fused parts or gaps): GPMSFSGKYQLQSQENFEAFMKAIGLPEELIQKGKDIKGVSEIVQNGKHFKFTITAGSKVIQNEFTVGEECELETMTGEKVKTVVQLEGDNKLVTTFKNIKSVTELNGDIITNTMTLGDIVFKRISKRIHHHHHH
# assay.protocol: DAUDA displacement fluorescence titrations of DAUDA–FABP1 with fatty acids, fit in KinTek Explorer
# Assay type: binding
# condition.parameters: lipid binding to DAUDA-bound FABP1 (DAUDA displacement); read-out: Kd, FD + S ↔ FDS

# compound, Kd [nM]
measured = [
    ("CCCCCCCCCCCC(=O)O [Laurate (C12), laurate]", 18000),
    ("O=C(O)CCCCCCCCCCCCCCCO [16-OH Palmitate (C16), 16-hydroxypalmitate]", 15000),
    ("CCCCCCCCCCCCCCCCCC(=O)O [Stearate (C18), stearate]", 21),
    ("CCCCCCCCCCCCCCCC(=O)O [Palmitate (C16), palmitate]", 10),
    ("CCCCCCCCCCCCCC(=O)O [Myristate (C14), myristate]", 860),
]
